- TARGET_UNDER_TEST: human PDE1B enzyme (Homo sapiens (Human), UniProt Q01064)
- METHOD: IMAP TR-FRET PDE1B enzymatic assay
- Assay type: biochemical
- CONDITIONS: negative log of half-maximal molar inhibitory concentration; 200 nM FAM-cAMP; values given as bins; read-out: PDE1b (pIC50) (converted)
ENDPOINT: IC50

[
  {
    "MOLECULE": "Cc1oc2ncnc(NC3(C)CC3)c2c1C(=O)N1CCC(c2ncc(F)cn2)CC1",
    "TARGET_UNDER_TEST": "human PDE1B enzyme (Homo sapiens (Human), UniProt Q01064)",
    "RESULT": "10 to 100 nM"
  },
  {
    "MOLECULE": "Cc1oc2ncnc(NC3(C)CC3)c2c1C(=O)NCc1cscn1",
    "TARGET_UNDER_TEST": "human PDE1B enzyme (Homo sapiens (Human), UniProt Q01064)",
    "RESULT": "10 to 100 nM"
  },
  {
    "MOLECULE": "COc1ncnc2c1CN(C(=O)c1c(C)oc3ncnc(NC4(C)CC4)c13)CC2",
    "TARGET_UNDER_TEST": "human PDE1B enzyme (Homo sapiens (Human), UniProt Q01064)",
    "RESULT": "100 to 1000 nM"
  },
  {
    "MOLECULE": "Cc1oc2ncnc(NC3(C)CC3)c2c1C(=O)NCc1ccnc(Cl)n1",
    "TARGET_UNDER_TEST": "human PDE1B enzyme (Homo sapiens (Human), UniProt Q01064)",
    "RESULT": "10 to 100 nM"
  },
  {
    "MOLECULE": "CCc1nc(C2CC2)n2c1CN(C(=O)c1c(C)oc3ncnc(NC4(C)CC4)c13)CC2",
    "TARGET_UNDER_TEST": "human PDE1B enzyme (Homo sapiens (Human), UniProt Q01064)",
    "RESULT": "100 to 1000 nM"
  },
  {
    "MOLECULE": "Cc1oc2ncnc(NC3(C)CC3)c2c1C(=O)NC1(c2ccccc2)COC1",
    "TARGET_UNDER_TEST": "human PDE1B enzyme (Homo sapiens (Human), UniProt Q01064)",
    "RESULT": "10 to 100 nM"
  },
  {
    "MOLECULE": "Cc1cc(N2CCC(NC(=O)c3c(C)oc4ncnc(NC5(C)CC5)c34)CC2)nc(C)n1",
    "TARGET_UNDER_TEST": "human PDE1B enzyme (Homo sapiens (Human), UniProt Q01064)",
    "RESULT": "100 to 1000 nM"
  },
  {
    "MOLECULE": "COc1ccc(C(C)NC(=O)c2c(C)oc3ncnc(NC4(C)CC4)c23)cc1 (stereo in doubt)",
    "TARGET_UNDER_TEST": "human PDE1B enzyme (Homo sapiens (Human), UniProt Q01064)",
    "RESULT": "10 to 100 nM"
  },
  {
    "MOLECULE": "Cc1oc2ncnc(NC3(C)CC3)c2c1C(=O)NCc1nccn1C",
    "TARGET_UNDER_TEST": "human PDE1B enzyme (Homo sapiens (Human), UniProt Q01064)",
    "RESULT": "10 to 100 nM"
  },
  {
    "MOLECULE": "Cc1oc2ncnc(NC3(C)CC3)c2c1C(=O)N1CCc2c(ncnc2NC2CC2)C1",
    "TARGET_UNDER_TEST": "human PDE1B enzyme (Homo sapiens (Human), UniProt Q01064)",
    "RESULT": "10 to 100 nM"
  },
  {
    "MOLECULE": "Cc1oc2ncnc(NC3(C)CC3)c2c1C(=O)N1CCc2c(ncnc2N2CC(F)C2)C1",
    "TARGET_UNDER_TEST": "human PDE1B enzyme (Homo sapiens (Human), UniProt Q01064)",
    "RESULT": "10 to 100 nM"
  },
  {
    "MOLECULE": "CCOCC1(CNC(=O)c2c(C)oc3ncnc(NC4(C)CC4)c23)CC1",
    "TARGET_UNDER_TEST": "human PDE1B enzyme (Homo sapiens (Human), UniProt Q01064)",
    "RESULT": "10 to 100 nM"
  },
  {
    "MOLECULE": "Cc1oc2ncnc(NC3(C)CC3)c2c1C(=O)N1CCc2c(nc(C(C)C)[nH]c2=O)C1",
    "TARGET_UNDER_TEST": "human PDE1B enzyme (Homo sapiens (Human), UniProt Q01064)",
    "RESULT": "10 to 100 nM"
  },
  {
    "MOLECULE": "Cc1oc2ncnc(NC3(C)CC3)c2c1C(=O)NCc1cn(C)cn1",
    "TARGET_UNDER_TEST": "human PDE1B enzyme (Homo sapiens (Human), UniProt Q01064)",
    "RESULT": "10 to 100 nM"
  },
  {
    "MOLECULE": "Cc1oc2ncnc(NC3(C)CC3)c2c1C(=O)NCc1ccc(OC(F)(F)F)cc1F",
    "TARGET_UNDER_TEST": "human PDE1B enzyme (Homo sapiens (Human), UniProt Q01064)",
    "RESULT": "10 to 100 nM"
  },
  {
    "MOLECULE": "COc1ccc(CNC(=O)c2c(C)oc3ncnc(NC4(C)CC4)c23)nn1",
    "TARGET_UNDER_TEST": "human PDE1B enzyme (Homo sapiens (Human), UniProt Q01064)",
    "RESULT": "10 to 100 nM"
  },
  {
    "MOLECULE": "Cc1nc(C)n2c1CN(C(=O)c1c(C)oc3ncnc(NC4(C)CC4)c13)CC2",
    "TARGET_UNDER_TEST": "human PDE1B enzyme (Homo sapiens (Human), UniProt Q01064)",
    "RESULT": "100 to 1000 nM"
  }
]
